Answer each item with its documented normalized growth.
# method_notes: chemical genetic growth profiling, strain panel (AID 1159580);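 also: tested at 20 µM; growth read once vehicle control cultures reached saturation at 30 °C; 1 = growth at the plate median or of vehicle wells; lower values mean less growth of the strain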
# particulars: S. cerevisiae deletion strains, growth OD, locus YHR027C, strain rpn1, hits give low values
The campaign covered roughly 5,500 compounds. About 2,000 (36%) were called active. Not shown: some 18% with an inconclusive outcome. This is one part of the list. Where a SMILES comes first, the peptide text is derived from it.
// return a plain number; no unit text

IN: Given the molecule COC(=O)[C@H](Cc1ccccc1)NC(=O)[C@@H](N)CC(=O)O (H-Asp-Phe-OMe) , write its reported normalized growth.
OUT: 1.02

IN: Given the molecule C=C[C@H]1CN2CC[C@H]1C[C@@H]2[C@@H](OC(=O)OCC)c1ccnc2ccc(OC)cc12 , write its reported normalized growth.
OUT: 0.983

IN: Given the molecule O=C(O)C1=C[C@@H](O)[C@@H](O)[C@H](O)C1 , write its reported normalized growth.
OUT: 0.968

IN: Given the molecule C[C@@H]([C@H](O)c1ccccc1)N(C)C , write its reported normalized growth.
OUT: 1.01

IN: Given the molecule CC(=O)O[C@]1(C(C)=O)CCC2C3C=C(Cl)C4=CC(=O)[C@@H]5C[C@@H]5[C@]4(C)C3CC[C@@]21C (stereo not given in full) , write its reported normalized growth.
OUT: 1.01

---

Answer each item with its documented normalized growth.
# method_notes: chemical genetic growth profiling, strain panel (AID 1159580);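 also: tested at 20 µM; growth read once vehicle control cultures reached saturation at 30 °C; 1 = growth at the plate median or of vehicle wells; lower values mean less growth of the strain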
# particulars: S. cerevisiae deletion strains, growth OD, locus YER155C, strain BEM2, hits give low values
Among all 5,500 compounds or so, about 2,000 (36%) were called active. Roughly 18% stayed inconclusive and do not appear here. Some of the results follow.
// return a plain number; no unit text

IN: Given the compound CN[C@@H]1C(O)[C@@H](O[C@@H]2[C@@H](O)[C@H](O[C@H]3OC(CN)=CC[C@H]3N)[C@@H](N)C[C@H]2N)OC[C@]1(C)O (some centres undefined) , write its reported normalized growth.
OUT: 1

IN: Given the compound CCc1cc(C(N)=S)ccn1 , write its reported normalized growth.
OUT: 0.99

IN: Given the compound COc1cc(OC)c2c(=O)c(O)c(-c3ccc(OC)c(OC)c3)oc2c1 , write its reported normalized growth.
OUT: 0.664

IN: Given the compound O=c1c(O)c(-c2cc(O)c(O)c(O)c2)oc2cc(O)cc(O)c12 , write its reported normalized growth.
OUT: 0.999

IN: Given the compound COc1ccc(-c2cc(=O)c3c(O)cc(O[C@H]4O[C@H](CO[C@@H]5O[C@@H](C)[C@H](O)[C@@H](O)[C@H]5O)[C@@H](O)[C@H](O)[C@H]4O)cc3o2)cc1 , write its reported normalized growth.
OUT: 1.01

IN: Given the compound COc1cc(OC)c2c(=O)c(OC)c(-c3ccc(OC)c(OC)c3)oc2c1 , write its reported normalized growth.
OUT: 1

IN: Given the compound COc1cc(O)c2c(=O)c(O)c(-c3ccc(O)c(O)c3)oc2c1 , write its reported normalized growth.
OUT: 1.01

IN: Given the compound CCCCCCCCCCCC1=C(O)C(=O)C=C(O)C1=O , write its reported normalized growth.
OUT: 0.925

IN: Given the compound COC(=O)C1OC(=O)C2OC23C1(C)CCC1C2(C)C(OC(C)=O)CC(OC(C)=O)C(C)(C)C2CC(=O)C13C (centres undefined) , write its reported normalized growth.
OUT: 0.929
